Source: paper PMC11089505

- PROTOCOL DESCRIPTION: Cell viability assay (CellTiter-Blue)
- REPORTED CONDITIONS: chlorocebus sabaeus
ENDPOINT: CC50 at 48 h

Prompt line: Fill in the blank: the reported CC50 at 48 h of CCCC(NC(=O)C(CC(C)C)NC(=O)OCc1ccccc1)C(=O)C(=O)NCc1ccccn1 (stereo not shown) [CI-XII] is ____.
Response line: > 10 µM

----------
Listed compounds paired with reported ΔTm [K] for CatL, 2:1 ratio
- ASSAY TARGET: CatL (Homo sapiens, UniProt P07711, T223A)
- Construct: made in house; host or cells: Komagataella pastoris strain GS115
- Sequence (P07711 114-333 T223A): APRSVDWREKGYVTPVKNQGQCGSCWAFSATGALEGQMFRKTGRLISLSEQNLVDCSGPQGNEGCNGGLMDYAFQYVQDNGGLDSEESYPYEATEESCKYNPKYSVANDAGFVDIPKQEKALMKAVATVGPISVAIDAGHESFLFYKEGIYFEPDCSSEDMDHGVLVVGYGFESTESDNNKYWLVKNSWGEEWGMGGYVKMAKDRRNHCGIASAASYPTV
- PROTOCOL DESCRIPTION: NanoDSF, thermal stability of CatL
- Format: binding
Peptide text beside a SMILES is read from it. * marks the point of attachment. Cbz = O=C(OCc1ccccc1)*

compound=Cc1ccc(S(=O)(=O)N[C@@H](Cc2ccccc2)C(=O)CCl)cc1 assay_target="CatL (Homo sapiens, UniProt P07711, T223A)" endpoint="ΔTm [K] for CatL, 2:1 ratio" result="4.7 ± 0.1 K"
compound=CC(C)C[C@H](NC(=O)[C@H]1O[C@@H]1C(=O)O)C(=O)NCCCCN=C(N)N assay_target="CatL (Homo sapiens, UniProt P07711, T223A)" endpoint="ΔTm [K] for CatL, 2:1 ratio" result="4.1 ± 0.4 K"

Prompt line: API: value(readout=ΔTm [K] for CatL, 2:1 ratio, system=CatL (Homo sapiens, UniProt P07711, T223A)) for record CC(C)C[C@@H](C=O)NC(=O)[C@H](CC(C)C)NC(=O)[C@H](CC(C)C)NC(=O)OCc1ccccc1 [MG-132, Z-Leu-Leu-Leu-aldehyde] (Cbz-Leu-Leu-Leu-aldehyde)
Response line: 16.6 ± 0.1 K

Prompt line: How about this compound: CC(C)C[C@@H](C=O)NC(=O)[C@@H](NS(=O)(=O)c1ccc(F)cc1)C(C)C
Response line: 15.2 ± 0.4 K

Prompt line: How about this compound: CCCC(NC(=O)C(CC(C)C)NC(=O)OCc1ccccc1)C(=O)C(=O)NCc1ccccn1 (centres unmarked)
Response line: 18.5 ± 0.4 K

----------
- Test system: SARS-CoV-2-GFP in Vero E6 cells
- PROTOCOL DESCRIPTION: microbe, parasite or virus in culture
- Assay type: cell-based
- REPORTED CONDITIONS: Severe acute respiratory syndrome coronavirus 2, Vero C1008, 48 h, read-out: EC50 (48 h)
pEC50: −log10 of the molar value. Square brackets hold non-standard residues; d marks the D form. Peptide text beside a SMILES is read from it. Nle = CCCC[C@H](N)C(=O)O
Listed compounds paired with reported pEC50

Here's what some known entries look like.
compound=CC[C@H](C)[C@H](NS(=O)(=O)c1cccc2ccccc12)C(=O)N[C@H](C=O)Cc1c[nH]c2ccccc12 result="> 6.30"
compound=O=C(NCc1ccccc1)[C@H](Cc1ccccc1)NC(=O)[C@H]1O[C@@H]1C(=O)NCCc1ccc(O)cc1 result="> 6.30"

Pending compound:
Prompt line: API: value(readout=pEC50, system=SARS-CoV-2-GFP in Vero E6 cells) for record CCCC[C@@H](C=O)NC(=O)[C@H](CC(C)C)NC(=O)[C@H](CC(C)C)NC(C)=O [MG-101, Acetyl-Leu-Leu-Nle-aldehyde] (Ac-Leu-Leu-[Nle]-aldehyde)
Response line: > 6.30

----------
- PROTOCOL DESCRIPTION: Cell viability assay (CellTiter-Blue)
- REPORTED CONDITIONS: African green monkey
Peptide text beside a SMILES is read from it. * marks the point of attachment. Cbz = O=C(OCc1ccccc1)*
Listed compounds paired with reported viability at 48 h, 10 µM
Expressed in %, but write only the number.

Here's what some known entries look like.
compound=CC[C@@H](C)[C@H](NS(=O)(=O)c1cccc2ccccc12)C(=O)N[C@H](C=O)Cc1c[nH]c2ccccc12 endpoint="viability at 48 h, 10 µM" units_label=% quantitative_readout=101
compound=CC(C)C[C@@H](C=O)NC(=O)[C@@H](NS(=O)(=O)c1ccc(F)cc1)C(C)C endpoint="viability at 48 h, 10 µM" units_label=% quantitative_readout=98.3
compound="CN(C)C(=O)C(Cc1ccccc1)NC(=O)[C@H]1O[C@@H]1C(=O)NCCc1ccccn1 (stereo partly drawn)" endpoint="viability at 48 h, 10 µM" units_label=% quantitative_readout=110
compound="CCCC(NC(=O)C(CC(C)C)NC(=O)OCc1ccccc1)C(=O)C(=O)NCc1ccccn1 (stereo not drawn)" endpoint="viability at 48 h, 10 µM" units_label=% quantitative_readout=106
compound=O=C(NCc1ccccc1)[C@H](Cc1ccccc1)NC(=O)[C@H]1O[C@@H]1C(=O)NCCc1ccc(O)cc1 endpoint="viability at 48 h, 10 µM" units_label=% quantitative_readout=105

Pending compound:
Prompt line: Fill in the blank: the reported viability at 48 h, 10 µM of CC(C)[C@H](NC(=O)OCc1ccccc1)C(=O)N[C@H](C=O)Cc1ccccc1 [CIII] (Cbz-Val-Phe-aldehyde) is ____.
Response line: 100

----------
- ASSAY TARGET: CatL (Homo sapiens, UniProt P07711, T223A)
- Construct: made in house; host or cells: Komagataella pastoris strain GS115
- PROTOCOL DESCRIPTION: CatL inhibition assay (Ki), substrate Z-RR-AMC
- Assay type: biochemical
- REPORTED CONDITIONS: Ki, CatL, Z-RR-AMC, pH 4.0, 37 °C
ENDPOINT: Ki

Prompt line: Fill in the blank: the reported Ki of CCCC(NC(=O)C(CC(C)C)NC(=O)OCc1ccccc1)C(=O)C(=O)NCc1ccccn1 (stereo not shown) is ____.
Response line: 0.64 nM

----------
- PROTOCOL DESCRIPTION: Cell viability assay (CellTiter-Blue)
- REPORTED CONDITIONS: African green monkey
Peptide text beside a SMILES is read from it. * marks the point of attachment. Cbz = O=C(OCc1ccccc1)*
ENDPOINT: viability at 48 h, 1e-05 µM (%)
Expressed in %, but write only the number.

Here's what some known entries look like.
molecule="CC(C)[C@H](NC(=O)OCc1ccccc1)C(=O)N[C@H](C=O)Cc1ccccc1 [CIII] (Cbz-Val-Phe-aldehyde)" quantitative_readout=95.8
molecule="CN(C)C(=O)C(Cc1ccccc1)NC(=O)[C@H]1O[C@@H]1C(=O)NCCc1ccccn1 (stereo partly drawn)" quantitative_readout=99.3
molecule=O=C(NCc1ccccc1)[C@H](Cc1ccccc1)NC(=O)[C@H]1O[C@@H]1C(=O)NCCc1ccc(O)cc1 quantitative_readout=103
molecule=CC[C@@H](C)[C@H](NS(=O)(=O)c1cccc2ccccc12)C(=O)N[C@H](C=O)Cc1c[nH]c2ccccc12 quantitative_readout=98.8

Prompt line: Fill in the blank: the reported viability at 48 h, 1e-05 µM of CCCC(NC(=O)C(CC(C)C)NC(=O)OCc1ccccc1)C(=O)C(=O)NCc1ccccn1 (stereo not drawn) is ____.
Response line: 98.9

Prompt line: How about this molecule: CC(C)C[C@@H](C=O)NC(=O)[C@@H](NS(=O)(=O)c1ccc(F)cc1)C(C)C
Response line: 95.9

----------
Listed compounds paired with reported ΔTm [K] for CatL, 2:1 ratio
- ASSAY TARGET: CatL (Homo sapiens, UniProt P07711, T223A)
- Construct: made in house; host or cells: Komagataella pastoris strain GS115
- PROTOCOL DESCRIPTION: NanoDSF, thermal stability of CatL
- Assay type: binding
- REPORTED CONDITIONS: Table S1, 2:1 ratio
Respond with a number, then the unit of measure.

Here's what some known entries look like.
compound=CCc1ccccc1NC(=O)CSC(=O)NNC(=O)[C@H](Cc1c[nH]c2ccccc12)NC(=O)OC(C)(C)C assay_target="CatL (Homo sapiens, UniProt P07711, T223A)" result="18.4 ± 0.1 K"
compound="CC(C)(C)OC(=O)NCC=O [BOCA, tert-Butyl N-2-oxoethylcarbamate]" assay_target="CatL (Homo sapiens, UniProt P07711, T223A)" result="-0.3 ± 0.1 K"
compound="CCOC(=O)[C@H]1O[C@@H]1C(=O)N[C@@H](CC(C)C)C(=O)NCCC(C)C [E-64d]" assay_target="CatL (Homo sapiens, UniProt P07711, T223A)" result="4.5 ± 0.1 K"

Pending compound:
Prompt line: API: value(readout=ΔTm [K] for CatL, 2:1 ratio, system=CatL (Homo sapiens, UniProt P07711, T223A)) for record CN(C)C(=O)C(Cc1ccccc1)NC(=O)[C@H]1O[C@@H]1C(=O)NCCc1ccccn1 (stereo partly shown)
Response line: 13.8 ± 0.1 K

----------
Listed compounds paired with reported viability at 48 h, 1 µM
- PROTOCOL DESCRIPTION: in vitro
- REPORTED CONDITIONS: African green monkey
Square brackets hold non-standard residues; d marks the D form. Peptide text beside a SMILES is read from it. Nle = CCCC[C@H](N)C(=O)O
Expressed in %, but write only the number.

compound="CCCC[C@@H](C=O)NC(=O)[C@H](CC(C)C)NC(=O)[C@H](CC(C)C)NC(C)=O [MG101] (Ac-Leu-Leu-[Nle]-aldehyde)" quantitative_readout=101

Pending compound:
Prompt line: Fill in the blank: the reported viability at 48 h, 1 µM of CCCC[C@@H](C=O)NC(=O)[C@H](CC(C)C)NC(=O)OCc1ccccc1 is ____.
Response line: 101
